measurement.protocol: Solubility in phosphate buffer at various pH values
Assay type: physicochemical
experimental.setup: aqueous buffer, thermodynamic from solid; pH 7.4, 50 mM phosphate buffer, shaken 10 min
measured.parameter: solubility at 10 min (µM)

[a] CCCCCCOC(=O)NC(=N)c1ccc(NCc2nc3cc(C(=O)N(CCC(=O)OCC)c4ccccn4)ccc3n2C)cc1 [Dabigatran etexilate]
[b] CCOC(=O)CCN(C(=O)c1ccc2c(c1)nc(CNc1ccc(/C(N)=N/OC(=O)CCC(=O)O)cc1)n2C)c1ccccn1
API: POST /compare with a and b ; response names the item with higher solubility at 10 min. Reply with the label of the item you choose.
b
(b: 4620 µM, a: 0.6 µM)

Origin of values: patent US8853245B2
